# maps each entry to its Ki
TARGET OR TEST SYSTEM: human thrombin (Homo sapiens)
Construct: 0.2-0.5 nM human thrombin or human factor Xa; purchased Enzyme Research Laboratories, South Bend, Ind
PROTOCOL SUMMARY: Inhibition of thrombin hydrolysis of chromogenic substrate S2238 (Ki)
Assay type: biochemical
CONDITION SUMMARY: S2238, pH 7.5
Where a name gives a salt, the structure may show the parent alone.

- COMPOUND: "COC(=O)C(Cc1cccc(C#N)c1)NC(=O)C1CCCN1C(=O)C(Cc1ccccc1)NC(=O)OC(C)(C)C [Example 130, Boc--(D)Phe--Pro--(S)Phe(mCN)--OMe]"
  Ki: "< 500 nM"
- COMPOUND: "CC1(C)C2CC3OB(C(Cc4cccc(C#N)c4)NC(=O)C4CCCN4C(=O)CCc4cccnc4)OC3(C)C1C2 (stereo not drawn) [Example 45]"
  Ki: "< 500 nM"
- COMPOUND: "CC1(C)C2CC3OB(C(Cc4cccc(C#N)c4)NC(=O)C4CCCN4)OC3(C)C1C2 (stereo not drawn) [Example 26, H--Pro--boroPhe(m-CN)--C10 H16.HCl]"
  Ki: "< 50000 nM"

Prompt: Returns the measured Ki for the input compound. Input: CC(=O)N[C@H](Cc1ccccc1)C(=O)N1CCC[C@H]1C(=O)NC(CCCCC#N)B1OC2CC3CC(C3(C)C)C2(C)O1 (stereo partly drawn) [Example 1]
Response: < 50000 nM

Prompt: Returns the measured Ki for the input compound. Input: CC(C)(C)OC(=O)NC(Cc1ccccc1)C(=O)N1CCCC1C(=O)NC(CCCC#N)B1OC2CC3CC(C3(C)C)C2(C)O1 (stereo not drawn) [Example 122]
Response: < 50000 nM

Prompt: Returns the measured Ki for the input compound. Input: CN(C(=O)OC(C)(C)C)C(Cc1ccccc1)C(=O)N1CCCC1C(=O)NC(Cc1cccc(C#N)c1)B1OC2CC3CC(C3(C)C)C2(C)O1 (stereo not drawn) [Example 33]
Response: < 500 nM

Prompt: Returns the measured Ki for the input compound. Input: COCCCC(NC(=O)C1CCCN1C(=O)C(Cc1ccccc1)NC(=O)CNC(C)=O)B1OC2CC3CC(C3(C)C)C2(C)O1 (stereo not drawn) [Example 144]
Response: < 500 nM

Prompt: Returns the measured Ki for the input compound. Input: CC(=O)NC(Cc1ccccc1)C(=O)N(C)CC(=O)NC(CCCNC=N)B(O)O (stereo not drawn) [Example 67, Ac--(D)Phe--Sar--boroOrn(CH=NH)--OH.HCl]
Response: < 500 nM

Prompt: Returns the measured Ki for the input compound. Input: CC1(C)C2CC3OB(C(Cc4cccc(C#N)c4)NC(=O)C4CCCN4C(=O)CSc4ncccn4)OC3(C)C1C2 (stereo not drawn) [Example 41]
Response: < 500 nM

Prompt: Returns the measured Ki for the input compound. Input: CC1(C)C2CC3OB(C(CCCNS(C)(=O)=O)NC(=O)C4CCCN4C(=O)[C@@H](Cc4ccccc4)NCC(=O)O)OC3(C)C1C2 (stereo partly drawn) [Example 119]
Response: < 500 nM

Prompt: Returns the measured Ki for the input compound. Input: CC(=O)NC(Cc1ccccc1)C(=O)N1CCCC1C(=O)NC(Cc1cccc(CN)c1)B1OC2CC3CC(C3(C)C)C2(C)O1 (stereo not drawn) [Example 13]
Response: < 500 nM

Prompt: Returns the measured Ki for the input compound. Input: CC(=O)N[C@H](Cc1ccccc1)C(=O)N1CCC[C@H]1C(=O)N[C@@H](Cc1cccc(Br)c1)B1O[C@@H]2C[C@@H]3C[C@@H](C3(C)C)[C@]2(C)O1 [Example 14, Ac--(D)Phe--Pro--boroPhe(m-Br)--C10 H16]
Response: < 500 nM
